System: UO-31 renal
assayProcedure: NCI-60 one-dose screen, 48 h (100 = growth as untreated, 0 = no growth, -100 = all killed)
conditionNotes: 10 µM unless noted
About 83,000 compounds went through this panel and 20% of them were active in at least one assay; those are over-represented in the sample as a whole.
metric: growth (%)
Numbers only, in %.

Prompt line: Need growth, item `CCC(=O)c1c(C)[nH]c(C)c1C`
Response line: 67.1

Prompt line: Which growth reading was recorded for the compound `O=S(=O)(NCCNc1cc(-c2cn(-c3ccccc3)nc2-c2cccc(O)c2)ccn1)c1ccc(Br)cc1` ?
Response line: 19.8

Prompt line: Can you look up the measured growth of `O=[N+]([O-])c1ccc(N/N=C(\C(=N/Nc2ccc([N+](=O)[O-])cc2[N+](=O)[O-])c2ccccc2)c2ccccc2)c([N+](=O)[O-])c1` for me?
Response line: 86.4

Prompt line: Suppose we examine the compound `N=C(N)c1ccc(-c2ccc(-c3cc(F)cc(F)c3)o2)nc1` ; what growth value has been reported?
Response line: 69.8

Prompt line: Endpoint output: growth of `O=S(=O)(NCCNc1cc(-c2cn(-c3ccccc3)nc2-c2cccc(O)c2)ccn1)c1ccccc1` . Value?
Response line: 37.4

Prompt line: Give its growth value. Item: `c1cc(N2CCCC2)c2nc(-c3[nH]ncc3Nc3ncnc4[nH]ccc34)[nH]c2c1`
Response line: -20.3

Prompt line: Look at this compound and give its reported growth. `Cc1cc2nc3c4cc([N+](=O)[O-])cc([N+](=O)[O-])c4n(CCN(C)C)c3nc2cc1C`
Response line: 40.4

Prompt line: Field request: growth | item: `CC(=O)O[C@H]1CC[C@]2(C)[C@H]3C(=O)C=C4[C@@H]5C[C@](C)(C(=O)N6CCCNCC6)CC[C@]5(C)CC[C@@]4(C)[C@]3(C)CC[C@H]2C1(C)C`
Response line: -85.5

Provide the reported growth of each entry below, same order.
1. CC(=O)N1N=C(c2ccc(C)cc2)CC1c1ccc(Oc2ccc(Br)cc2)cc1 (centres undefined)
2. COC(c1ccccc1)(c1ccccc1)c1ccccc1
3. Fc1ccc(NCc2nnc(-c3ccc(Cl)cc3)o2)cc1
4. N#Cc1c(-c2ccc(O)cc2)c2c(N)nn(-c3ccccc3)c2[nH]c1=O
5. O=C(N/N=C\c1ccccc1O)C1CC1
6. CC(C)(C)c1cc(-n2c(-c3ccc(Cl)cc3)nc3cc(C(=O)Nc4ccc(Cl)cc4)ccc32)n[nH]1

Response line:
39.2
105
54.3
71.8
71
28.5
